Biological target: Norepinephrine (NE) uptake (Rattus norvegicus, UniProt Q9WTR4)
Assay: Norepinephrine (NE) uptake inhibitory activity using rat brain synaptosome (hippocampus)
Assay type: biochemical
Conditions: tritium-labeled NE 12 nM, 37° C. ten minutes, read-out: 50% inhibitory concentration
measured_parameter: IC50 (nM)
Return type: number; implicit unit nM.

compound	u	IC50
CC1(C)CN(c2ccc3cc(OC(F)F)ccc3c2)[C@H]2CCCC[C@@H]2N1	nM	11.7
CC1(C)CN(c2cccc3ccsc23)[C@H]2CCCC[C@H]2N1	nM	0.5
CC1(C)CN(c2csc3ccccc23)[C@@H]2CCCC[C@@H]2N1 [Example 577]	nM	5.9
CC1(C)CN(c2cccc3[nH]ccc23)[C@@H]2CCCC[C@@H]2N1	nM	4.9

Next compound, please.
(Q) Which IC50 is reported for this compound? "C[C@@H]1CN(c2ccc(F)c3occc23)[C@H]2CCCC[C@@H]2N1"
(A) 0.8

Hello, the source for this data is patent US11273168B2, in case you need it.
